Tested on: HCV genotype 1b replicon in Huh 7 cells
Assay: HCV replicon assay (luciferase readout, 1b_Huh-Luc/Neo-ET cell line)
Type: cell-based
Conditions: Hepatitis C virus, Huh-7, 72 h, read-out: Inhibition of HCV genotype 1b, Table 9, 72 h incubation
pEC50: −log10 of the molar value.
MEASURED_METRIC: pEC50

SUBSTANCE_SMILES	MEASURED_METRIC	READING
COC(=O)N[C@@H](C(=O)N1CCC[C@H]1c1nc(-c2ccc(/C=C/c3ccc(-c4cnc([C@@H]5CCCN5C(=O)[C@H](NC(=O)OC)c5ccccc5)[nH]4)cc3)cc2)c[nH]1)c1ccccc1	pEC50	> 9.00

----------
Test system: HCV genotype 1b replicon in Huh 7 cells
Experiment: HCV replicon assay (luciferase readout, 1b_Huh-Luc/Neo-ET cell line)
Type: cell-based
Details: Hepatitis C virus, Huh-7, 72 h, read-out: Inhibition of HCV genotype 1b, Table 1, 72 h incubation
pEC50: −log10 of the molar value.

COMPOUND	pEC50
COC(=O)N[C@H](Cc1ccccc1)C(=O)N1CCC[C@H]1c1ncc(C2CCC(c3ccc(-c4cnc([C@@H]5CCCN5C(=O)[C@@H](c5ccccc5)N5CCCC5)[nH]4)cc3)CC2)[nH]1 (some centres unmarked) [compound 375]	> 9.00
COC(=O)N[C@@H](C(=O)N1CCC[C@H]1c1ncc(C2CCC(c3ccc(-c4cnc([C@@H]5CCCN5C(=O)[C@@H](c5ccccc5)N(C)C)[nH]4)cc3)CC2)[nH]1)c1ccccc1 (some centres unmarked) [compound 377]	> 9.00
COC(=O)N[C@@H](C(=O)N1CCC[C@H]1c1ncc(C2CCC(c3ccc(-c4cnc([C@@H]5CCCN5C(=O)[C@@H](c5ccccc5)N5CCOCC5)[nH]4)cc3)CC2)[nH]1)c1ccccc1 (some centres unmarked) [compound 378]	> 9.00
O=C(N[C@H]1CC[C@@H](c2cccc(-c3cnc([C@@H]4CCCN4C(=O)[C@H](NC(=O)N4CCOCC4)c4ccccc4)[nH]3)c2)CC1)[C@@H]1CCCN1C(=O)[C@H](NC(=O)N1CCOCC1)c1ccccc1 [compound 365]	8.00 to 9.00
CC(C)[C@@H](NC(=O)OC(C)(C)C)C(=O)N1CCC[C@H]1C(=O)N[C@H]1CC[C@@H](c2ccc(-c3cnc([C@@H]4CCCN4C(=O)[C@H](NC(=O)OC(C)(C)C)C(C)C)[nH]3)cc2)CC1 [compound 357]	6.00 to 8.00

----------
System: HCV genotype 1b replicon in Huh 7 cells
Test: HCV replicon assay (luciferase readout, 1b_Huh-Luc/Neo-ET cell line)
Format: cell-based
Conditions: Hepatitis C virus, Huh-7, 72 h, read-out: Inhibition of HCV genotype 1b, Table 1, 72 h incubation
Parameter EC50: see the listing below.

MOLECULE	EC50
CC(C)(C)OC(=O)N[C@@H](C(=O)N1CCC[C@H]1C(=O)N[C@H]1CC[C@H](c2cccc(-c3cnc([C@@H]4CCCN4C(=O)[C@H](NC(=O)OC(C)(C)C)c4ccccc4)[nH]3)c2)CC1)c1ccccc1 [compound 362]	1 to 9.9 nM
COC(=O)N[C@H](C(=O)N1CCC[C@H]1c1ncc(-c2ccc([C@H]3CC[C@H](c4cnc([C@@H]5CCCN5C(=O)[C@H](NC(=O)N5CCC(O)CC5)c5ccccc5)[nH]4)CC3)cc2)[nH]1)C(C)C [compound 2003]	< 1 nM
O=C(N[C@@H](C(=O)N1CCC[C@H]1c1ncc(-c2ccc(C3CCC(c4cnc([C@@H]5CCCN5C(=O)[C@H](NC(=O)C5CC5)c5ccccc5)o4)CC3)cc2)[nH]1)c1ccccc1)C1CC1 (stereo partly drawn) [compound 353]	< 1 nM
COC(=O)N[C@@H](C(=O)N1CCC[C@H]1c1ncc(-c2ccc(C3CCC(c4cnc([C@@H]5CCCN5C(=O)[C@H](NC(=O)OC)c5ccccc5)[nH]4)CC3)cc2)[nH]1)c1ccccc1 (stereo partly drawn) [compound 373]	< 1 nM
COC(=O)N[C@H](C(=O)N1CCC[C@H]1c1ncc(-c2ccc([C@H]3CC[C@H](c4cnc([C@@H]5CCCN5C(=O)[C@@H](NC(=O)OC)C(C)C)[nH]4)CC3)cc2)[nH]1)C(C)C [compound 381]	< 1 nM
O=C(N[C@@H](C(=O)N1CCC[C@H]1c1ncc(-c2ccc(C3CCC(c4cnc([C@@H]5CCCN5C(=O)[C@H](NC(=O)C5CC5)c5ccccc5)[nH]4)CC3)cc2)[nH]1)c1ccccc1)C1CC1 (stereo partly drawn) [compound 371]	< 1 nM
COC(=O)N[C@@H](C(=O)N1CCC[C@H]1c1ncc(-c2ccc([C@H]3CC[C@](C)(c4cnc([C@@H]5CCCN5C(=O)[C@H](NC(=O)OC)c5ccccc5)[nH]4)CC3)cc2)[nH]1)c1ccccc1 [compound 2006]	< 1 nM
CC(C)(C)OC(=O)N[C@@H](C(=O)N1CCC[C@H]1C(=O)N[C@H]1CC[C@@H](c2cccc(-c3cnc([C@@H]4CCCN4C(=O)[C@H](NC(=O)OC(C)(C)C)c4ccccc4)[nH]3)c2)CC1)c1ccccc1 [compound 363]	< 1 nM
CC(C)[C@H](NC(=O)N1CCOCC1)C(=O)N1CCC[C@H]1c1ncc(-c2ccc([C@H]3CC[C@H](c4cnc([C@@H]5CCCN5C(=O)[C@@H](NC(=O)N5CCOCC5)C(C)C)[nH]4)CC3)cc2)[nH]1 [compound 385]	10 to 999 nM
COC(=O)N[C@H](C(=O)N1CCC[C@H]1c1ncc(-c2ccc([C@H]3CC[C@H](c4cnc([C@@H]5CCCN5C(=O)[C@@H](NC(=O)OC)C5CC5)[nH]4)CC3)cc2)[nH]1)C1CC1 [compound 942]	< 1 nM
CC(C)[C@H](NC(=O)OC(C)(C)C)C(=O)N1CCC[C@H]1c1ncc(-c2ccc([C@H]3CC[C@@H](c4cnc([C@@H]5CCCN5C(=O)[C@@H](NC(=O)OC(C)(C)C)C(C)C)[nH]4)CC3)cc2)[nH]1 [compound 384]	10 to 999 nM
COC(=O)N[C@H](C(=O)N1CCC[C@H]1c1ncc(-c2ccc([C@H]3CC[C@H](c4cnc([C@@H]5CCCN5C(=O)[C@H](NC(=O)OC5CCOCC5)C(C)C)[nH]4)CC3)cc2)[nH]1)C(C)C [compound 946]	< 1 nM
O=C(N[C@@H](C(=O)N1CCC[C@H]1C(=O)N[C@H]1CC[C@H](c2ccc(-c3cnc([C@@H]4CCCN4C(=O)[C@H](NC(=O)C4CC4)c4ccccc4)[nH]3)cc2)CC1)c1ccccc1)C1CC1 [compound 350]	< 1 nM
CC(C)[C@@H](NC(=O)OC(C)(C)C)C(=O)N1CCC[C@H]1c1ncc(-c2ccc(C3CCC(c4cnc([C@@H]5CCCN5C(=O)[C@H](NC(=O)OC(C)(C)C)C(C)C)[nH]4)CC3)cc2)[nH]1 (stereo partly drawn) [compound 366]	10 to 999 nM
O=C(NC1CCC(c2ccc(-c3cnc([C@@H]4COCCN4C(=O)C(NC(=O)N4CCOCC4)c4ccccc4)[nH]3)cc2)CC1)[C@@H]1CCCN1C(=O)C(NC(=O)N1CCOCC1)c1ccccc1 (stereo partly drawn) [compound 372]	1 to 9.9 nM
CC(C)(C)OC(=O)N[C@@H](C(=O)N1CCC[C@H]1c1ncc(-c2ccc(C3CCC(c4cnc([C@@H]5CCCN5C(=O)[C@H](NC(=O)OC(C)(C)C)c5ccccc5)[nH]4)CC3)cc2)[nH]1)c1ccccc1 (stereo partly drawn) [compound 367]	< 1 nM
CC(C)[C@H](NC(=O)N1CCOCC1)C(=O)N1CCC[C@H]1c1ncc(-c2ccc([C@H]3CC[C@@H](c4cnc([C@@H]5CCCN5C(=O)[C@@H](NC(=O)N5CCOCC5)C(C)C)[nH]4)CC3)cc2)[nH]1 [compound 386]	10 to 999 nM
CC(C)(C)OC(=O)N[C@@H](C(=O)N1CCC[C@H]1c1ncc(-c2ccc(C3CCC(c4cnc([C@@H]5CCCN5C(=O)[C@H](NC(=O)OC(C)(C)C)c5ccccc5)o4)CC3)cc2)[nH]1)c1ccccc1 (stereo partly drawn) [compound 352]	1 to 9.9 nM

----------
Test system: HCV genotype 1b replicon in Huh 7 cells
Assay: HCV replicon assay (luciferase readout, 1b_Huh-Luc/Neo-ET cell line)
Type: cell-based
Details: Hepatitis C virus, Huh-7, 72 h, read-out: Inhibition of HCV genotype 1b, Table 1, 72 h incubation
Parameter EC50: see the listing below.

MOLECULE	EC50
COC(=O)N[C@@H](C(=O)N1CCC[C@H]1c1ncc(-c2ccc(C3CCC(c4cnc([C@@H]5CCCN5C(=O)[C@@H](c5ccccc5)N(C)C)[nH]4)CC3)cc2)[nH]1)c1ccccc1 (some centres unmarked) [compound 376]	< 1 nM
O=C(N[C@H]1CC[C@H](c2cccc(-c3cnc([C@@H]4CCCN4C(=O)[C@H](NC(=O)N4CCOCC4)c4ccccc4)[nH]3)c2)CC1)[C@@H]1CCCN1C(=O)[C@H](NC(=O)N1CCOCC1)c1ccccc1 [compound 364]	1 to 9.9 nM
O=C(N[C@@H](C(=O)N1CCC[C@H]1C(=O)N[C@H]1CC[C@@H](c2ccc(-c3cnc([C@@H]4CCCN4C(=O)[C@H](NC(=O)C4CC4)c4ccccc4)[nH]3)cc2)CC1)c1ccccc1)C1CC1 [compound 351]	< 1 nM
COC(=O)N[C@H](C(=O)N1CCC[C@H]1c1ncc(-c2ccc([C@H]3CC[C@@H](c4cnc([C@@H]5CCCN5C(=O)[C@@H](NC(=O)OC)C(C)C)[nH]4)CC3)cc2)[nH]1)C(C)C [compound 382]	< 1 nM
COC(=O)N[C@H](C(=O)N1CCC[C@H]1c1ncc(-c2ccc([C@H]3CC[C@H](c4cnc([C@@H]5CCCN5C(=O)[C@@H](NC(=O)OC)[C@@H](C)OC)[nH]4)CC3)cc2)[nH]1)[C@@H](C)OC [compound 388]	< 1 nM

Where do these numbers come from? They come from patent US9120779B2.
